experimental.system: EPHB4 (Homo sapiens, UniProt P54760)
Sequence (P54760 16-987): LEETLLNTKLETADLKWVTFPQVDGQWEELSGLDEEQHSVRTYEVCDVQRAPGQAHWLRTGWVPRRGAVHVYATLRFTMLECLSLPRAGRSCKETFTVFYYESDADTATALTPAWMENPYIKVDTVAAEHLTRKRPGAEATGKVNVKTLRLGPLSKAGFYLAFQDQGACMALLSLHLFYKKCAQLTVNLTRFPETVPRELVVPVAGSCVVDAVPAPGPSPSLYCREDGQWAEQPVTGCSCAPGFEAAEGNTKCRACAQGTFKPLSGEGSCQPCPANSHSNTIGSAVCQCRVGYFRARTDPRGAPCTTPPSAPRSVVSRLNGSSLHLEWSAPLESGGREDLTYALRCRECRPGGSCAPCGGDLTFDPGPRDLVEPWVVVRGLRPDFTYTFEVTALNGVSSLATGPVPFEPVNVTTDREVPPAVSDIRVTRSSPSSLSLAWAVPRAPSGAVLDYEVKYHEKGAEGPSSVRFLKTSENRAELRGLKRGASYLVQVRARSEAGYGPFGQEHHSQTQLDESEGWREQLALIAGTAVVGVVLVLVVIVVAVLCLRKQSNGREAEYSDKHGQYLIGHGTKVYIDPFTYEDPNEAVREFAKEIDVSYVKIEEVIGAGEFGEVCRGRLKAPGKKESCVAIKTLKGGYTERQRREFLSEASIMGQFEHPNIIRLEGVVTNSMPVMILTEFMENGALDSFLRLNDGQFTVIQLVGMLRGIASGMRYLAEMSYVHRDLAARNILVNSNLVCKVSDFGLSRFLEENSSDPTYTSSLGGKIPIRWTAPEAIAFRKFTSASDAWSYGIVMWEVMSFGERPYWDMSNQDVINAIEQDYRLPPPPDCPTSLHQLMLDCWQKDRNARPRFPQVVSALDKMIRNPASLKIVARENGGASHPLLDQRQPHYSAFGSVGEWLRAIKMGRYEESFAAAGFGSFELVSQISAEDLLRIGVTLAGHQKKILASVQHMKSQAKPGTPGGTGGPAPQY
measurement.type: IC50

Solved entries:
COc1cc(Nc2ncnc(Nc3ccc(Cl)cc3)n2)cc(OC)c1OC : 1.03 to 6.19 µM
COc1cc(Nc2ncnc(Nc3ccc(OCc4ccccc4)cc3)n2)cc(OC)c1 : > 10.5 µM
COc1cc(Nc2ncnc(N(Cc3ccccc3)c3nc4ccccc4[nH]3)n2)cc(OC)c1OC : > 9.31 µM
COc1cc(Nc2ncnc(-n3cnc4ccccc43)n2)cc(OC)c1OC : > 11.9 µM
COc1ccc(Nc2ncnc(Nc3cccc(Br)c3)n2)cc1OC : 0.994 to 5.97 µM
COc1cc(Nc2ncnc(Nc3[nH]ncc3-c3cccs3)n2)cc(OC)c1OC : > 10.6 µM
COc1cc(Nc2ncnc(NN3CCOCC3)n2)cc(OC)c1OC : 1.1 to 6.62 µM
COc1cc(Nc2ncnc(Nc3ccc(C)c(F)c3)n2)cc(OC)c1OC : 1.04 to 6.23 µM

Consider the additional compound presented here.
(Q) Provide the documented IC50 with EPHB4 (Homo sapiens, UniProt P54760) as the system for COc1cc(Nc2ncnc(Nc3ccc4cn[nH]c4c3)n2)cc(OC)c1OC
(A) 1.02 to 6.1 µM

###

experimental.system: Itk (Homo sapiens)
Construct: Kinases are expressed as either kinase domains or full length constructs; made in house
Sequence (Q08881 whole entry, species assumed, the tested form may be a part): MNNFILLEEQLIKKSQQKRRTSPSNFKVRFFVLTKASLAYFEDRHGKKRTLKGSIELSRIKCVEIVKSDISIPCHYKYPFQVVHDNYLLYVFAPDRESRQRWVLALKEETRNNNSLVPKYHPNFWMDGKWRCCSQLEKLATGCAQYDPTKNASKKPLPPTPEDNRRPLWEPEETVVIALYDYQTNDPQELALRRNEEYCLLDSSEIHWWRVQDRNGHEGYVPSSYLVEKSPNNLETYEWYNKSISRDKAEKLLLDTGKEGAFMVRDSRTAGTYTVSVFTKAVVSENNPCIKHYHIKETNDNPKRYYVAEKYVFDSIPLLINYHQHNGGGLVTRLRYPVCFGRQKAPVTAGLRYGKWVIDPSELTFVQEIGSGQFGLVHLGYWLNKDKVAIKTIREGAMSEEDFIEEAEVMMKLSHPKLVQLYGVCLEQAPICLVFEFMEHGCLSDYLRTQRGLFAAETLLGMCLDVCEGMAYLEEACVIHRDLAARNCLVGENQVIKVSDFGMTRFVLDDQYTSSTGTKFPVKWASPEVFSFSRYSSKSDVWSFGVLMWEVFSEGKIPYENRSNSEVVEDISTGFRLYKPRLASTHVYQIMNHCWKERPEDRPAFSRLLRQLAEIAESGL
assay.details: Kinase inhibition assay (33P transfer), Itk
Type: biochemical
measurement.context: Table 3; read-out: Itk-1
pIC50: −log10 of the molar value.
Recorded measurements of pIC50, one per entry

Solved entries:
COc1cc(Nc2ncnc(Nc3ccccc3)n2)cc(OC)c1OC [Compound 91] : < 4.90
NC(=O)c1cccc(Nc2ncnc(Nc3cc(-c4ccco4)n[nH]3)n2)c1 [Compound 342] : 5.18 to 5.96
COc1cc(NC(=O)Nc2ncnc(Nc3cc(OC)c(OC)c(OC)c3)n2)cc(OC)c1 [Compound 22] : < 5.01
COc1cc(Nc2ncnc(-c3ccc(N4CCNCC4)nc3)n2)cc(OC)c1OC [Compound 436] : < 4.97
COc1ccccc1Nc1nc2ccccc2n1-c1ncnc(Nc2cc(OC)c(OC)c(OC)c2)n1 [Compound 398] : < 5.05
COc1cc(Nc2ncnc(Nc3nc(-c4ccccc4)cs3)n2)cc(OC)c1OC [Compound 444] : < 4.99
COc1cc(Nc2ncnc(-n3c(=O)sc4ccccc43)n2)cc(OC)c1OC [Compound 424] : < 4.96

Consider the additional compound presented here.
(Q) I am curious: what pIC50 value has been reported for COc1ccc2c(ccn2-c2ncnc(Nc3cc(OC)c(OC)c(OC)c3)n2)c1 [Compound 196] ?
(A) < 4.96
